# pKd listing for each entry below
Assay System: T1, human interleukin-23 receptor (IL23R) (human, UniProt Q5VWK5 24-355, limits assumed)
T1 construct: also called human IL23R
T1 sequence (looked up): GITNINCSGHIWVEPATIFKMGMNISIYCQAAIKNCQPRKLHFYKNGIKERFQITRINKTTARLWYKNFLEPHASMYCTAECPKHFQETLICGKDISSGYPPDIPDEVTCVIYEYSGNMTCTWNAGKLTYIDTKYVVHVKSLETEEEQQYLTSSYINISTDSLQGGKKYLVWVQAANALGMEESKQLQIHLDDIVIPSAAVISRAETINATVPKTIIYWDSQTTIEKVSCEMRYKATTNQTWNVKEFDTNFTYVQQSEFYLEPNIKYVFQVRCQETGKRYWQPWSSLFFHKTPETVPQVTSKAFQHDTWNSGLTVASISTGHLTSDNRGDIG
Test Protocol: SPR, scFv
pKd: −log10 of the molar value.
Measure: pKd

1. Vκ3/VH1B consensus (uncapped), human IL23R specific scFv (scFv, scFv VL-linker-VH, made in E. coli; Vκ framework IV (uncapped, full consensus); also called Vκ3VH1B uncapped) scFv: DIVLTQSPATLSLSPGERATLSCQASENIYSFLAWYQQKPGQAPRLLIYSASKLAAGVPARFSGSGSGTDFTLTISSLEPEDFAVYYCQQTNRYSNPDIYNVFGQGTKVEIKRGGGGSGGGGSGGGGSGGGGSQVQLVQSGAEVKKPGASVKVSCKASGIDFNSNYYMCWVRQAPGQGLEWMGCIYVGSHVNTYYANWAKGRVTMTRDTSISTAYMELSSLRSEDTAVYYCATSGSSVLYFKFWGQGTLVTVSS ... 9.34
2. Vκ1/VH4 consensus λ-capped, human IL23R specific scFv (scFv, scFv VL-linker-VH, made in E. coli; also called Vκ1VH4 capped) scFv: DIQMTQSPSSLSASVGDRVTITCQASENIYSFLAWYQQKPGKAPKLLIYSASKLAAGVPSRFSGSGSGTDFTLTISSLQPEDFATYYCQQTNRYSNPDIYNVFGGGTKLTVLGGGGGSGGGGSGGGGSGGGGSQVQLQESGPGLVKPSETLSLTCTVSGIDFNSNYYMCWIRQPPGKGLEWIGCIYVGSHVNTYYANWAKGRVTISVDTSKNQFSLKLSSVTAADTAVYYCATSGSSVLYFKFWGQGTLVTVSS ... 10.34
3. Vκ3/VH1A consensus (uncapped), human IL23R specific scFv (scFv, scFv VL-linker-VH, made in E. coli; Vκ framework IV (uncapped, full consensus); also called Vκ3VH1A uncapped) scFv: DIVLTQSPATLSLSPGERATLSCQASENIYSFLAWYQQKPGQAPRLLIYSASKLAAGVPARFSGSGSGTDFTLTISSLEPEDFAVYYCQQTNRYSNPDIYNVFGQGTKVEIKRGGGGSGGGGSGGGGSGGGGSQVQLVQSGAEVKKPGSSVKVSCKASGIDFNSNYYMCWVRQAPGQGLEWMGCIYVGSHVNTYYANWAKGRVTITADESTSTAYMELSSLRSEDTAVYYCATSGSSVLYFKFWGQGTLVTVSS ... 9.53
4. Vκ1/VH6 consensus λ-capped, human IL23R specific scFv (scFv, scFv VL-linker-VH, made in E. coli; also called Vκ1VH6 capped) scFv: DIQMTQSPSSLSASVGDRVTITCQASENIYSFLAWYQQKPGKAPKLLIYSASKLAAGVPSRFSGSGSGTDFTLTISSLQPEDFATYYCQQTNRYSNPDIYNVFGGGTKLTVLGGGGGSGGGGSGGGGSGGGGSQVQLQQSGPGLVKPSQTLSLTCAISGIDFNSNYYMCWIRQSPGRGLEWLGCIYVGSHVNTYYANWAKGRITINPDTSKNQFSLQLNSVTPEDTAVYYCATSGSSVLYFKFWGQGTLVTVSS ... 9.61
5. Vκ2/VH6 consensus λ-capped, human IL23R specific scFv (scFv, scFv VL-linker-VH, made in E. coli; also called Vκ2VH6 capped) scFv: DIVMTQSPLSLPVTPGEPASISCQASENIYSFLAWYLQKPGQSPQLLIYSASKLAAGVPDRFSGSGSGTDFTLKISRVEAEDVGVYYCQQTNRYSNPDIYNVFGGGTKLTVLGGGGGSGGGGSGGGGSGGGGSQVQLQQSGPGLVKPSQTLSLTCAISGIDFNSNYYMCWIRQSPGRGLEWLGCIYVGSHVNTYYANWAKGRITINPDTSKNQFSLQLNSVTPEDTAVYYCATSGSSVLYFKFWGQGTLVTVSS ... 9.05
